Assay: in vivo
Conditions: female, NCr-nu athymic

{"STRUCTURE NOTATION": "O=C(NOC[C@H](O)CO)c1ccc(F)c(F)c1Nc1ccc(I)cc1F", "MTD": "12.5 mg/kg"}
{"STRUCTURE NOTATION": "CCCCCOC(=O)Nc1nc(=O)n([C@@H]2O[C@H](C)[C@@H](O)[C@H]2O)cc1F", "MTD": "650 mg/kg"}

----------
Overview of reported MTD across a group of molecules:
Assay: in vivo
Details: female, NCr-nu athymic

{"STRUCTURE NOTATION": "CCCCCOC(=O)Nc1nc(=O)n([C@@H]2O[C@H](C)[C@@H](O)[C@H]2O)cc1F", "UNIT INFO": "mg/kg", "MTD": 650}
{"STRUCTURE NOTATION": "O=C(NOC[C@H](O)CO)c1ccc(F)c(F)c1Nc1ccc(I)cc1F", "UNIT INFO": "mg/kg", "MTD": 12.5}

----------
Experiment: in vivo
Details: female, Balb/C, mouse, po

{"STRUCTURE NOTATION": "CCCCCOC(=O)Nc1nc(=O)n([C@@H]2O[C@H](C)[C@@H](O)[C@H]2O)cc1F", "MTD": "750 mg/kg/day"}
